Would you mind telling me the reported viability at 100 ug/ml of each entry?
- test method notes: Cytotoxicity against mouse RAW264.7 cells assessed as cell viability at 100 ug/ml by MTT assay
- Assay type: cell-based
- cond: read-out: Activity

INSERT INTO measurements (compound, result_type, observed_result) VALUES
  ('C/C=C(\C)C(=O)O[C@@H]1[C@H](O)[C@@H](O)[C@@H](OC(=O)/C(C)=C/C)[C@H](OC(=O)/C(=C/C)CO)[C@H]1OC(=O)/C(=C/C)CO', 'viability at 100 ug/ml', '> 85%'),
  ('C/C=C(\CO)C(=O)O[C@H]1[C@H](OC(=O)C(C)CC)[C@H](O)[C@@H](OC(=O)C(C)CC)[C@@H](O)[C@@H]1OC(=O)/C(=C/C)CO (stereo partly drawn)', 'viability at 100 ug/ml', '> 85%');

Here's the next entry for you.
Exercise: Fill in: viability at 100 ug/ml of C/C=C(\C)C(=O)O[C@@H]1[C@H](O)[C@@H](OC(=O)C(C)CC)[C@@H](O)[C@H](OC(=O)/C(=C/C)CO)[C@H]1OC(=O)/C(=C/C)CO (stereo partly drawn) is ___
Key: > 85%
